# Assayed system: GRASP, Q7Z6J2
# Sequence (Q7Z6J2 96-193): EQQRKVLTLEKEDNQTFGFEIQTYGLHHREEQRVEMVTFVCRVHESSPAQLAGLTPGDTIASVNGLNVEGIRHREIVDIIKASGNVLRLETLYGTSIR
# Test details: holdup assay
# Design: key: below the threshold = too weak to quantify, mostly under pKd 3.1 to 4
# Details: plain residues with an end cap or a label only (N-terminal biotin on a linker: ado-ado)
Metric name: pKd
A bare number is all that is needed in reply.

Use these answered entries as a reference point.
Binder | Metric name | Value
TKEIPNCTSV [SORCS3, Q9UPU3] | pKd | 4.74
IGHEDLETAV [DGKI, O75912] | pKd | 3.57
PEKVSNTTVV [IGSF5, Q9NSI5] | pKd | 4.38
VYEVPVETKF [SLC26A3, P40879] | pKd | 3.81
GTMFLRETSL [GUCY1A2, P33402] | pKd | 4.73

[Q] Consider the binder NNMAFETTHF [SLC5A12, Q1EHB4] and give its recorded pKd.
[A] 4.8

[Q] Provide measured pKd value, entry: PSDSVGKDVF [EGLN1, Q9GZT9]
[A] 3.7
